- experimentalProtocol: In vitro H2O hydrolysis and oxygen evolution catalyzed by LEAT protein under light
- Assay type: biochemical
- Set-up: key: +: similar O2 evolution activity as that of YFP; ++: higher O2 evolution activity than that of YFP by at least one order of magnitude; weak: lower activity than that of YFP by at least one order of magnitude
- studyConditions: water hydrolysis and O2 evolution under light, relative to YFP
endpoint: O2 evolution activity

cpGFP: green fluorescent protein from Chiridius poppei (AB185173), SEQ ID NO: 52 (protein, listed as Chiridius poppei) MTTFKIESRIHGNLNGEKFELVGGGVGEEGRLEIEMKTKDKPLAFSPFLLSHCMGYGFYHFASFPKGTKNIYLHAATNGGYTNTRKEIYEDGGILEVNFRYTYEFNKIIGDVECIGHGFPSQSPIFKDTIVKSCPTVDLMLPMSGNIIASSYARAFQLKDGSFYTAEVKNNIDFKNPIHESFSKSGPMFTHRRVEETHTKENLAMVEYQQVFNSAPRDM; +
